# assay_procedure: Selectivity index, ratio of IC50 for mouse BALB/3T3 cells to IC50 for human HL60/Vinc cells
# Assay type: functional
measurement_name: Selectivity Index

INSERT INTO assay_data (smiles_structure, experimental_result) VALUES
  ('[N-]=[N+]=N[C@H]1C[C@H](n2cc(F)c(=O)[nH]c2=O)O[C@@H]1CO', 0.33),
  ('O=c1[nH]cc(F)c(=O)[nH]1', 0.15),
  ('O=c1[nH]c(=O)n([C@H]2C[C@H](O)[C@@H](CO)O2)cc1F', 1.37),
  ('CC[C@@H](C(=O)[C@@H](C)[C@@H](O)[C@H](C)[C@@H]1O[C@@H]([C@@H](CC)C(=O)OC[C@H]2O[C@@H](n3cc(F)c(=O)[nH]c3=O)C[C@@H]2O)CC[C@@H]1C)[C@H]1O[C@]2(C=C[C@@H](O)[C@]3(CC[C@@](C)([C@H]4CC[C@](O)(CC)[C@H](C)O4)O3)O2)[C@H](C)C[C@@H]1C', 11.45),
  ('CC[C@@H](C(=O)[C@@H](C)[C@@H](O)[C@H](C)[C@@H]1O[C@@H]([C@@H](CC)C(=O)O)CC[C@@H]1C)[C@H]1O[C@]2(C=C[C@@H](O)[C@]3(CC[C@@](C)([C@H]4CC[C@](O)(CC)[C@H](C)O4)O3)O2)[C@H](C)C[C@@H]1C', 4.46);

====

# assay_procedure: Antiproliferative activity against human HL60 cells assessed as growth inhibition after 72 hrs by MTT assay
# Format: functional, cell-based
# condition_parameters: HL-60, 72 h
pIC50: −log10 of the molar value.
measurement_name: pIC50

INSERT INTO assay_data (smiles_structure, experimental_result) VALUES
  ('CC[C@@H](C(=O)[C@@H](C)[C@@H](O)[C@H](C)[C@@H]1O[C@@H]([C@@H](CC)C(=O)NCc2cn([C@H]3C[C@H](n4cc(F)c(=O)[nH]c4=O)O[C@@H]3CO)nn2)CC[C@@H]1C)[C@H]1O[C@]2(C=C[C@@H](O)[C@]3(CC[C@@](C)([C@H]4CC[C@](O)(CC)[C@H](C)O4)O3)O2)[C@H](C)C[C@@H]1C', 4.54),
  ('O=c1[nH]cc(F)c(=O)[nH]1', 4.65),
  ('CC[C@@H](C(=O)[C@@H](C)[C@@H](O)[C@H](C)[C@@H]1O[C@@H]([C@@H](CC)C(=O)OC[C@H]2O[C@@H](n3cc(F)c(=O)[nH]c3=O)C[C@@H]2O)CC[C@@H]1C)[C@H]1O[C@]2(C=C[C@@H](O)[C@]3(CC[C@@](C)([C@H]4CC[C@](O)(CC)[C@H](C)O4)O3)O2)[C@H](C)C[C@@H]1C', 6.43);

====

Measured MIC, listed per entry for reference.
# Tested on: Staphylococcus epidermidis
# assay_procedure: Antimicrobial activity against methicillin-resistant Staphylococcus epidermidis 468/11 after 18 hrs by two-fold serial microdilution method
# Format: functional
# condition_parameters: 468/11, 18 h
measurement_name: MIC (µM)

INSERT INTO results (smiles_structure, measurement_name, unit_name, value_prefix, experimental_result) VALUES
  ('O=c1[nH]cc(F)c(=O)[nH]1', 'MIC', 'µM', '=', 0.48),
  ('CC[C@@H](C(=O)[C@@H](C)[C@@H](O)[C@H](C)[C@@H]1O[C@@H]([C@@H](CC)C(=O)NCc2cn([C@H]3C[C@H](n4cc(F)c(=O)[nH]c4=O)O[C@@H]3CO)nn2)CC[C@@H]1C)[C@H]1O[C@]2(C=C[C@@H](O)[C@]3(CC[C@@](C)([C@H]4CC[C@](O)(CC)[C@H](C)O4)O3)O2)[C@H](C)C[C@@H]1C', 'MIC', 'µM', '=', 60.4),
  ('[N-]=[N+]=N[C@H]1C[C@H](n2cc(F)c(=O)[nH]c2=O)O[C@@H]1CO', 'MIC', 'µM', '=', 0.92),
  ('O=c1[nH]c(=O)n([C@H]2C[C@H](O)[C@@H](CO)O2)cc1F', 'MIC', 'µM', '≤', 0.016),
  ('CC[C@@H](C(=O)[C@@H](C)[C@@H](O)[C@H](C)[C@@H]1O[C@@H]([C@@H](CC)C(=O)O)CC[C@@H]1C)[C@H]1O[C@]2(C=C[C@@H](O)[C@]3(CC[C@@](C)([C@H]4CC[C@](O)(CC)[C@H](C)O4)O3)O2)[C@H](C)C[C@@H]1C', 'MIC', 'µM', '=', 2.66),
  ('CC[C@@H](C(=O)[C@@H](C)[C@@H](O)[C@H](C)[C@@H]1O[C@@H]([C@@H](CC)C(=O)OC[C@H]2O[C@@H](n3cc(F)c(=O)[nH]c3=O)C[C@@H]2O)CC[C@@H]1C)[C@H]1O[C@]2(C=C[C@@H](O)[C@]3(CC[C@@](C)([C@H]4CC[C@](O)(CC)[C@H](C)O4)O3)O2)[C@H](C)C[C@@H]1C', 'MIC', 'µM', '=', 32.7);
